# Test system: NCI/ADR-RES
# test_name: NCI tumour cell line growth inhibition, 48 h
The source made the active and inactive calls. Cut-off read from the data, not from the text of the source: active = GI50 up to about 1.1 µM and inactive = higher.
Please provide measured GI50 for the entries that follow.

Give NCI/ADR-RES GI50 for CCOP(=O)(CCC(O)CNc1nc(N)nc(Cl)c1/N=N/c1ccc(Cl)cc1)OCC (stereo not given)
11.5 µM (inactive)

Give NCI/ADR-RES GI50 for `CCCS(=O)(=O)Nc1ccc(Nc2c3ccccc3nc3ccccc23)c(OC)c1`
3.95 µM (inactive)

Give NCI/ADR-RES GI50 for `CSCCCNC(=O)c1csc(-c2csc(C(CNC(=O)OC(C)(C)C)CNC(=O)OC(C)(C)C)n2)n1`
24.8 µM (inactive)

Give NCI/ADR-RES GI50 for COc1ccc(N[S+]([O-])c2ccc(Cl)cc2)cc1 (stereo not given)
38.8 µM (inactive)

Give NCI/ADR-RES GI50 for `Cc1ccc(S(=O)(=O)Oc2coc(CO)cc2=O)cc1`
22.8 µM (inactive)
